Target: MCT1 (Homo sapiens (Human), UniProt P53985)
Sequence (P53985 whole entry): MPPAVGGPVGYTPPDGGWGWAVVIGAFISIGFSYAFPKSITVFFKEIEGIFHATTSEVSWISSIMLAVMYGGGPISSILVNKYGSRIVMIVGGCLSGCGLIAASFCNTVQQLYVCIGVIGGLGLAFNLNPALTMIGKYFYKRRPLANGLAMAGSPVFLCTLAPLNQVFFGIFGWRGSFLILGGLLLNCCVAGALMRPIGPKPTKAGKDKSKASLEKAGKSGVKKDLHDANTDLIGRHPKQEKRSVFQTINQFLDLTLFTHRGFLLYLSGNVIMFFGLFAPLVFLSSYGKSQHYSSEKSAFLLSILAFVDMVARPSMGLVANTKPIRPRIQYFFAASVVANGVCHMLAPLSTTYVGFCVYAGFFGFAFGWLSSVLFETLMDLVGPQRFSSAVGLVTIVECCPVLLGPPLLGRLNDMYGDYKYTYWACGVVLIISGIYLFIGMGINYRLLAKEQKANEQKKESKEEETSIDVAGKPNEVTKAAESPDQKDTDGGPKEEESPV
Sequence (P35613 140-385 partner): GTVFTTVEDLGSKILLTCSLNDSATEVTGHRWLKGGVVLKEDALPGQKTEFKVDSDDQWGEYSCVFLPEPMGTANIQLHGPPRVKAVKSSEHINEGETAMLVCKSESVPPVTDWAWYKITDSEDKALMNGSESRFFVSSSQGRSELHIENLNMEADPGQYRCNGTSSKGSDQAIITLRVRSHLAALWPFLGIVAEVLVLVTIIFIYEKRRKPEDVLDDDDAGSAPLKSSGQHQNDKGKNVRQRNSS
Assay: Assay 4: MCT1-mediated lactate transport in BT20 breast cancer cells
Type: cell-based
Conditions: Table 27
parameter_measured: IC50 (nM)

// solved cases for IC50 follow
1. CCOc1cc(OCC)cc(-c2cc(COC(C)(C)C(=O)O)nn2-c2cccc3cnn(C)c23)c1 [Example 171] = 32000
2. CC[C@@](C)(OCc1cc(-c2cccc(OC3CC3)c2)n(-c2ccccc2Cl)n1)C(=O)O [Example 262] = 7900

A: CC(C)(OCc1cc(-c2cccc(OCC3COC3)c2)n(-c2ccccc2Cl)n1)C(=O)O [Example 173]
B: CCCn1ncc2ccc(-c3cc(CO[C@](C)(CC)C(=O)O)nn3-c3ccccc3N3CCC3)cc21 [Example 267]
Query string: I'm curious, which of these has a smaller IC50 number: A or B ? Response format: the label of the selected entry.
Result string: B
(B: 11000 nM, A: 66000 nM)
